tested on: B cell; assay: Cytotoxicity screening of chemical probes in isolated B cell assay. Data is normalized to DMSO control, the cell viability average of replicates are reported. Reduction of ATP level more than 20% indicate compromised cell health status.; conditions: human, 1 µM
Square brackets hold non-standard residues; d marks the D form. Peptide text beside a SMILES is read from it.
Listing: Cell Viability of selected compounds
Experimental readout: Cell Viability (%)

- c1ccc(NCc2ccc(CNc3ccccn3)cc2)nc1: 99.8082
- CCCn1c(=O)c2[nH]c(C3CCCC3)nc2n(CCC)c1=O: 98.0011
- CC(C)C[C@@H]1NC(=O)[C@@H](C(C)C)NC(=O)[C@@H]2CCCN2C(=O)[C@@H](CC(=O)O)NC(=O)[C@@H](Cc2c[nH]c3ccccc23)NC1=O [BQ-123] (cyclo(L[dW][dD]P[dV])): 98.0011
- Cc1ccc2c(c1CCC(=O)O)CC[C@@H](NS(=O)(=O)c1ccc(Cl)cc1)C2 [TERUTROBAN]: 98.0011
- CCc1nc2c(C)cc(C)nc2[nH]1: 98.0011
- NC(=O)c1ccc(CNC(=O)NC[C@H]2CN(Cc3ccc(Cl)c(Cl)c3)CCO2)cc1: 98.0011
- CC1(C)[C@H]2C[C@H](C/C=C\CCCC(=O)O)[C@@H](NC(=O)c3csc4ccc(O)cc34)[C@@H]1C2: 98.0011
- CSc1cc2c(cc1C(F)(F)F)N(C(=O)Nc1cccnc1)CC2: 98.0011
- c1cc(CN2CCCNCCNCCCNCC2)ccc1CN1CCCNCCNCCCNCC1 [PLERIXAFOR]: 104.498

====

tested on: B cell; assay: Cytotoxicity screening of chemical probes in isolated B cell assay. Data is normalized to DMSO control, the cell viability average of replicates are reported. Reduction of ATP level more than 20% indicate compromised cell health status.; conditions: human, 1 µM
Bridge positions count the residues as written; N and C are the ends. Square brackets hold non-standard residues; d marks the D form. Peptide text beside a SMILES is read from it. * marks the point of attachment. dPhe(4-NHCONH2) = NC(=O)Nc1ccc(C[C@@H](N)C(=O)O)cc1; Dihydroorotyl(S) = O=C1C[C@@H](C(=O)*)NC(=O)N1; dPhe(4-Cl) = N[C@H](Cc1ccc(Cl)cc1)C(=O)O; Phe(4-NH2) = Nc1ccc(C[C@H](N)C(=O)O)cc1; d2Nal = N[C@H](Cc1ccc2ccccc2c1)C(=O)O; Lys(iPr) = CC(C)NCCCC[C@H](N)C(=O)O; d3Pal = N[C@H](Cc1cccnc1)C(=O)O; Orn = NCCC[C@H](N)C(=O)O; Mpa = O=C(O)CCS
Each entry below carries its recorded Cell Viability.
Experimental readout: Cell Viability (%)

• COC[C@@H](c1ccc(C(F)(F)F)cc1)N1CCN(C2(C)CCN(C(=O)c3c(C)ncnc3C)CC2)C[C@@H]1C.O=C(O)/C=C\C(=O)O [VICRIVIROC MALEATE] = 101.876
• COc1cc(C(=O)N(CCCc2ccccc2)Cc2ccc(CC(=O)O)cc2)cc(OC)c1C = 98.0011
• CC(=O)N[C@H](Cc1ccc2ccccc2c1)C(=O)N[C@H](Cc1ccc(Cl)cc1)C(=O)N[C@H](Cc1cccnc1)C(=O)N[C@@H](CO)C(=O)N[C@@H](Cc1ccc(NC(=O)[C@@H]2CC(=O)NC(=O)N2)cc1)C(=O)N[C@H](Cc1ccc(NC(N)=O)cc1)C(=O)N[C@@H](CC(C)C)C(=O)N[C@@H](CCCCNC(C)C)C(=O)N1CCC[C@H]1C(=O)N[C@H](C)C(N)=O [DEGARELIX] (Ac-[d2Nal][dPhe(4-Cl)][d3Pal]S[Phe(4-NH2)](Dihydroorotyl(S))[dPhe(4-NHCONH2)]L[Lys(iPr)]P[dA]-NH2) = 98.0011
• CC#C[C@@H](CC(=O)O)c1ccc(OCc2cccc(-c3ccc(C(F)(F)F)cc3)c2)cc1 = 98.0011
• N#Cc1ccc(NC(=O)Nc2ccccc2Br)c2nn[nH]c12 = 104.304
• Nc1nc2c(c(N3CCNCC3)n1)CCC1=C2[C@@H]2CCCC[C@@H]2O1 = 100.079
• COc1ccncc1C(=O)NC(=O)Nc1ccc(-c2ccccc2)c(C(F)(F)F)c1 = 98.0011
• c1cc(OCCCN2CCCCC2)ccc1CN1CCCCC1 = 98.0011
• Cc1nc[nH]c1CCN.Cl = 98.0011
• CCOc1ccc(C[C@H]2NC(=O)CCSSC[C@@H](C(=O)N3CCC[C@H]3C(=O)N[C@@H](CCCN)C(=O)NCC(N)=O)NC(=O)[C@H](CC(N)=O)NC(=O)[C@H]([C@@H](C)O)NC(=O)[C@H]([C@@H](C)CC)NC2=O)cc1 [ATOSIBAN] ([Mpa][dY](Et)ITNCP[Orn]G-NH2; disulfide 1-6) = 98.0011
• C[C@]12N[C@H](Cc3ccccc31)c1ccccc12 = 98.0011
• CCCCC(=O)N(Cc1ccc(-c2ccccc2-c2nnn[nH]2)cc1)[C@H](C(=O)O)C(C)C = 98.0011
• N#Cc1c(O)nc(SCc2cccc(F)c2F)nc1C1CC1 = 104.007
• NS(=O)(=O)c1c(Cl)ccc(NC(=O)Nc2cccc(Cl)c2Cl)c1O = 102.927
• Cc1ccc(/C(=C\CN2CCCC2)c2ccccn2)cc1 = 98.0011
